- Test system: Escherichia coli TOP10
- Assay Notes: shrunken log2 fold change of peptide-encoding DNA abundance (4.5 h post-induction vs induction); higher = less antimicrobial activity (less host growth inhibition)
- Cond: time post-induction: 4.5 h; library: site-saturation at positions 5, 18, 19, 20
Rule: yes for shrunken log2 fold change not less than -0.1, no for anything less.

Answered examples (4):
| Ordered Residues | Assigned Category |
| --- | --- |
| RRIRHRPPRLPRPRPRPSNEPRP | no |
| RRIRRRPPRLPRPRPRPTSIPRP | no |
| RRIRDRPPRLPRPRPRPESFPRP | yes |
| RRIRTRPPRLPRPRPRPSYMPRP | no |

Assess whether reported shrunken log2 fold change for RRIRMRPPRLPRPRPRPYGVPRP sits at -0.1 or higher.
no

Assess whether reported shrunken log2 fold change for RRIRRRPPRLPRPRPRPFCHPRP sits at -0.1 or higher.
no

Assess whether reported shrunken log2 fold change for RRIRDRPPRLPRPRPRPNCWPRP sits at -0.1 or higher.
no

Assess whether reported shrunken log2 fold change for RRIRHRPPRLPRPRPRPCPQPRP sits at -0.1 or higher.
no

Assess whether reported shrunken log2 fold change for RRIRTRPPRLPRPRPRPEPMPRP sits at -0.1 or higher.
yes

Assess whether reported shrunken log2 fold change for RRIRARPPRLPRPRPRPRCEPRP sits at -0.1 or higher.
yes

Assess whether reported shrunken log2 fold change for RRIRNRPPRLPRPRPRPRDRPRP sits at -0.1 or higher.
yes

Assess whether reported shrunken log2 fold change for RRIRLRPPRLPRPRPRPTLPPRP sits at -0.1 or higher.
yes

* * *

- System: Escherichia coli TOP10
- Assay Notes: shrunken log2 fold change of peptide-encoding DNA abundance (4.5 h post-induction vs induction); higher = less antimicrobial activity (less host growth inhibition)
- Cond: time post-induction: 4.5 h; library: site-saturation at positions 5, 18, 19, 20
Rule: 1 for shrunken log2 fold change not less than 0.1, 0 for anything less.

Assess whether reported shrunken log2 fold change for RRIRLRPPRLPRPRPRPRDVPRP sits at 0.1 or higher.
1

Assess whether reported shrunken log2 fold change for RRIRIRPPRLPRPRPRPYDKPRP sits at 0.1 or higher.
0

Assess whether reported shrunken log2 fold change for RRIRDRPPRLPRPRPRPDKIPRP sits at 0.1 or higher.
1

Assess whether reported shrunken log2 fold change for RRIRPRPPRLPRPRPRPPYDPRP sits at 0.1 or higher.
0

Assess whether reported shrunken log2 fold change for RRIRGRPPRLPRPRPRPAFSPRP sits at 0.1 or higher.
0

Assess whether reported shrunken log2 fold change for RRIRWRPPRLPRPRPRPKTQPRP sits at 0.1 or higher.
0

Assess whether reported shrunken log2 fold change for RRIRTRPPRLPRPRPRPCFWPRP sits at 0.1 or higher.
0

Assess whether reported shrunken log2 fold change for RRIRYRPPRLPRPRPRPCVRPRP sits at 0.1 or higher.
0

Assess whether reported shrunken log2 fold change for RRIRSRPPRLPRPRPRPWYHPRP sits at 0.1 or higher.
0

Assess whether reported shrunken log2 fold change for RRIRQRPPRLPRPRPRPKRCPRP sits at 0.1 or higher.
1

Assess whether reported shrunken log2 fold change for RRIRCRPPRLPRPRPRPPMHPRP sits at 0.1 or higher.
1

Assess whether reported shrunken log2 fold change for RRIRFRPPRLPRPRPRPAAKPRP sits at 0.1 or higher.
0

Assess whether reported shrunken log2 fold change for RRIRKRPPRLPRPRPRPQCHPRP sits at 0.1 or higher.
1

Assess whether reported shrunken log2 fold change for RRIRHRPPRLPRPRPRPASSPRP sits at 0.1 or higher.
0

Assess whether reported shrunken log2 fold change for RRIRSRPPRLPRPRPRPNIMPRP sits at 0.1 or higher.
0

* * *

- Tested on: Escherichia coli TOP10
- Assay Notes: shrunken log2 fold change of peptide-encoding DNA abundance (4.5 h post-induction vs induction); higher = less antimicrobial activity (less host growth inhibition)
- Cond: time post-induction: 4.5 h; library: site-saturation at positions 5, 18, 19, 20
Rule: YES for shrunken log2 fold change not less than 0.3, NO for anything less.

Assess whether reported shrunken log2 fold change for RRIRCRPPRLPRPRPRPDFRPRP sits at 0.3 or higher.
NO

Assess whether reported shrunken log2 fold change for RRIRSRPPRLPRPRPRPSIKPRP sits at 0.3 or higher.
NO

Assess whether reported shrunken log2 fold change for RRIRERPPRLPRPRPRPTVPPRP sits at 0.3 or higher.
NO

Assess whether reported shrunken log2 fold change for RRIRKRPPRLPRPRPRPWIEPRP sits at 0.3 or higher.
NO

Assess whether reported shrunken log2 fold change for RRIRDRPPRLPRPRPRPKAAPRP sits at 0.3 or higher.
NO

* * *

The reader will find reported shrunken log2 fold change values listed item by item below.
- System: Escherichia coli TOP10
- Assay Notes: shrunken log2 fold change of peptide-encoding DNA abundance (4.5 h post-induction vs induction); higher = less antimicrobial activity (less host growth inhibition)
- Cond: time post-induction: 4.5 h; library: site-saturation at positions 5, 18, 19, 20
Enter a number only.

Here's what some known entries look like.
| Ordered Residues | shrunken log2 fold change |
| --- | --- |
| RRIRNRPPRLPRPRPRPAVCPRP | 0.158 |
| RRIRGRPPRLPRPRPRPMGFPRP | 0.315 |
| RRIRARPPRLPRPRPRPRYMPRP | -0.365 |
| RRIRARPPRLPRPRPRPFIMPRP | -0.507 |

Lookup: shrunken log2 fold change / Escherichia coli TOP10 / RRIRTRPPRLPRPRPRPHSAPRP
0.205

Lookup: shrunken log2 fold change / Escherichia coli TOP10 / RRIRNRPPRLPRPRPRPTWCPRP
-0.0306

Lookup: shrunken log2 fold change / Escherichia coli TOP10 / RRIRCRPPRLPRPRPRPGIYPRP
-0.0438

Lookup: shrunken log2 fold change / Escherichia coli TOP10 / RRIRLRPPRLPRPRPRPTVLPRP
-0.126

Lookup: shrunken log2 fold change / Escherichia coli TOP10 / RRIRQRPPRLPRPRPRPCQLPRP
-0.0105

* * *

- Tested on: Escherichia coli TOP10
- Assay Notes: shrunken log2 fold change of peptide-encoding DNA abundance (4.5 h post-induction vs induction); higher = less antimicrobial activity (less host growth inhibition)
- Cond: time post-induction: 4.5 h; library: site-saturation at positions 5, 18, 19, 20
Endpoint Label: shrunken log2 fold change

| Ordered Residues | shrunken log2 fold change |
| --- | --- |
| RRIRQRPPRLPRPRPRPSWGPRP | -0.0627 |
| RRIRERPPRLPRPRPRPHFQPRP | 0.0177 |
| RRIRTRPPRLPRPRPRPVSLPRP | -0.298 |

# input sequence: RRIRPRPPRLPRPRPRPGPKPRP ; wanted: its shrunken log2 fold change
0.394

# input sequence: RRIRPRPPRLPRPRPRPTVWPRP ; wanted: its shrunken log2 fold change
0.747

# input sequence: RRIRYRPPRLPRPRPRPRDQPRP ; wanted: its shrunken log2 fold change
-0.0852

# input sequence: RRIRHRPPRLPRPRPRPGALPRP ; wanted: its shrunken log2 fold change
-0.00348

* * *

The reader will find reported shrunken log2 fold change values listed item by item below.
- Tested on: Escherichia coli TOP10;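 note: peptides expressed intracellularly from a pBAD plasmid library in pooled LB shake-flask culture, induced with 0.3% L-arabinose, DNA abundance read by NGS, three biological replicates, DESeq2 with apeglm shrinkage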
- Assay Notes: shrunken log2 fold change of peptide-encoding DNA abundance (4.5 h post-induction vs induction); higher = less antimicrobial activity (less host growth inhibition)
- Cond: time post-induction: 4.5 h; library: site-saturation at positions 5, 18, 19, 20
Enter a number only.

Here's what some known entries look like.
| Ordered Residues | Reported Value |
| --- | --- |
| RRIRYRPPRLPRPRPRPKMMPRP | -1.3 |
| RRIRIRPPRLPRPRPRPLMNPRP | -0.94 |
| RRIRLRPPRLPRPRPRPSRWPRP | -0.279 |

# input sequence: RRIRTRPPRLPRPRPRPEDAPRP ; wanted: its shrunken log2 fold change
0.0648

# input sequence: RRIRERPPRLPRPRPRPLIYPRP ; wanted: its shrunken log2 fold change
-0.682

# input sequence: RRIRKRPPRLPRPRPRPRPYPRP ; wanted: its shrunken log2 fold change
0.182

# input sequence: RRIRWRPPRLPRPRPRPGVLPRP ; wanted: its shrunken log2 fold change
0.0321

# input sequence: RRIRIRPPRLPRPRPRPWHMPRP ; wanted: its shrunken log2 fold change
-0.0375

# input sequence: RRIRERPPRLPRPRPRPDNYPRP ; wanted: its shrunken log2 fold change
-0.0933

# input sequence: RRIRLRPPRLPRPRPRPRSPPRP ; wanted: its shrunken log2 fold change
0.803

# input sequence: RRIRTRPPRLPRPRPRPSNPPRP ; wanted: its shrunken log2 fold change
-0.663

# input sequence: RRIRNRPPRLPRPRPRPQWTPRP ; wanted: its shrunken log2 fold change
-0.0119

# input sequence: RRIRTRPPRLPRPRPRPESGPRP ; wanted: its shrunken log2 fold change
0.366

# input sequence: RRIRFRPPRLPRPRPRPSMYPRP ; wanted: its shrunken log2 fold change
-0.432

# input sequence: RRIRFRPPRLPRPRPRPIVPPRP ; wanted: its shrunken log2 fold change
0.0537
